- System: COLO 205
- measurementNotes: NCI tumour cell line growth inhibition, 48 h
Calls of active or inactive are those of the source. Cut-off read from the data, not from the text of the source: active = GI50 up to about 1.1 µM and inactive = higher.
readoutKind: GI50

Below, each entry is followed by its recorded GI50 result.
INSERT INTO results (molecule, experimentalvalue) VALUES
  ('COc1ccc2c(C3(O)CCNCC3)c[nH]c2c1', '> 100 µM (inactive)'),
  ('COc1ccc2c([nH]c3c(O)c(-c4c(C)cc5c([nH]c6c(CC=C(C)C)c(OC)ccc65)c4O)c(C)cc32)c1CC=C(C)C', '> 100 µM (inactive)'),
  ('CC(=O)O[C@H]1[C@@H](N2CCOCC2)C[C@H]2[C@@H]3CC=C4C[C@@H](N5CCCC5)CC[C@]4(C)[C@H]3CC[C@@]21C', '> 100 µM (inactive)'),
  ('C1CCN(C2OC3C(COC3N3CCCCC3)OC2OC2CCO[C@@H]2N2CCCCC2)CC1 (some centres not stated)', '38.3 µM (inactive)'),
  ('O=C(O)CP(=S)(S)c1ccccc1 (configuration not stated)', '> 100 µM (inactive)'),
  ('Cc1cc(Cc2c(C)c(C)c(Cc3cc(C)cc(C(C)(C)C)c3O)c(C)c2C)c(O)c(C(C)(C)C)c1', '> 100 µM (inactive)');

So, `CO[P@]1(=O)O[C@@H](c2ccccc2)[C@H](O)[C@]1(O)c1ccccc1` ? Its GI50 was > 100 µM (inactive)

# molecule `C1=CC=C2NCCOCC/N=C3/C=CC=CC=C3NCCOCC/N=C\2C=C1` ; its GI50 = 45 µM (inactive)

molecule `C=CCOCn1ccc(NC(=O)c2ccccc2)nc1=O` , GI50 observed: > 100 µM (inactive)

# molecule `O=C(/C(=N/Nc1ccccc1)c1ccc([N+](=O)[O-])cc1)c1ccc([N+](=O)[O-])cc1` ; its GI50 = > 100 µM (inactive)

// recorded GI50 for BrC1=CCC23CC=C(Br)[C@H]4CC2(COC3)C[C@@H]1O4 (some centres not stated) : > 100 µM (inactive)

The molecule listed as `O=c1c2cccnc2ncn1CCN1CCCC1` shows GI50 equal to > 100 µM (inactive)

Record `N#CCCN(CCNc1ccccc1)C(=O)Nc1ccc(NC(=O)N(CCC#N)CCNc2ccccc2)cc1` , field GI50: > 100 µM (inactive)

Every entry's value here was drawn from ChEMBL document CHEMBL1201862.
